- System: SK-MEL-5 melanoma
- Protocol description: NCI tumour cell line growth inhibition, 48 h
Parameter threshold = 30 µM. Response is Fulfilled when TGI meets or exceeds it, else Not fulfilled.

Here are 5 compounds together with their reported answers.
>>> label_value("O=C(/C=C/c1ccc(O)c(O)c1)OC1C[C@@](O)(C(=O)O)C[C@@H](O)[C@H]1OC(=O)/C=C/c1ccc(O)c(O)c1 (stereo partly specified)")
"Fulfilled"
>>> label_value("CNC(=O)c1c(NC(=O)c2ccc(C(F)(F)F)cc2)sc2c1CCC(=O)C2")
"Not fulfilled"
>>> label_value("Cc1nn2c(=O)c([N+](=O)[O-])c(/C=C/c3ccco3)nc2s1")
"Fulfilled"
>>> label_value("Cc1ccc(-n2c3nc(=O)n(C)c(=O)c-3nc3ccccc32)cc1")
"Not fulfilled"
>>> label_value("CCSC(SCC)c1cc2c(cc1Br)OCO2")
"Fulfilled"

Q) Kindly determine if TGI recorded for `CO/[N+]([O-])=C\C(=O)N/C=C/C(=O)O` is above or exactly 30 µM.
A) Fulfilled

Q) Next record, please: COC(=O)C(Cc1ccccc1)NC(=O)C(CCC(=O)OCc1ccccc1)NC(=O)OC(C)(C)C (stereo unspecified)
A) Fulfilled
